- testDetails: E. coli acrAB mutant growth effects, primary screen, E. coli filamentation inducers, strain DRC39, OD650, 48 h (AID 1179);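 note: screen aims at cell division blockers that make cells filament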
- conditionLabel: E. coli DRC39 delta-acrAB growth, higher = more signal, called active from +8 up or from −8 down
Could you label it label 1 if measured z-score is 0.09 or higher, and label 0 otherwise?

>  <molecule>
CCOC(=O)C1=CCC(c2cc3ccccc3[nH]2)N(S(=O)(=O)c2ccccc2[N+](=O)[O-])C1 (configuration not stated)

>  <classification>
label 1

$$$$
>  <molecule>
[N-]=[N+]=Nc1ccccc1[C@@H]1OC(c2ccc(OCCCO)cc2)=N[C@]1(Cc1ccccc1)C(N)=O

>  <classification>
label 1

$$$$
>  <molecule>
COc1ccc(C#Cc2ccc3c(c2)[C@]2(C(=O)N3)[C@H](C(=O)Nc3nc4ccccc4s3)[C@H]3C(=O)O[C@H](c4ccccc4)[C@H](c4ccccc4)N3[C@@H]2c2ccc(OCCO)cc2)cc1

>  <classification>
label 1

$$$$
>  <molecule>
CCOC(=O)C1=C(C(=O)OCC)N(S(=O)(=O)CC[Si](C)(C)C)[C@H](c2ccccc2)CC1

>  <classification>
label 0

$$$$
>  <molecule>
CC(C)(C)OC(=O)CC[C@]1(C(N)=O)N=C(c2ccc(OCCCO)cc2)O[C@H]1c1ccccc1CN=[N+]=[N-]

>  <classification>
label 1

$$$$

Next item in the queue.
*Q* Determine whether this molecule has z-score no lower than 0.09: `CCOC(=O)C1=C[C@@H](C(C)(C)C)N(S(=O)(=O)c2ccc(C)cc2)[C@H]1c1ccccc1Cl`
*A* label 0

###

- testDetails: anti-His antibody binders, primary screen, artefact control for SMM control protein annotation, biochemical, small-molecule microarray, 635 nm fluorescence (AID 1128);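 note: score merges feature fluorescence with signal-to-noise for each printed compound spot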
- conditionLabel: anti-His Alexa647 antibody binding, higher = more signal
Attribute: composite z-score
Please respond with just the number, no unit label.

Below: 2 compounds and their reported composite z-score.
>  <compound>
CC(C)C(=C=CC[C@@H](O)c1ccc(OCCO)cc1)CCO

>  <composite z-score>
-0.171

$$$$
>  <compound>
C=C(COC)/C(=C/C[C@H](OC(=O)c1ccncc1)c1ccc(OCCO)cc1)c1cc(C(=O)OC)ccc1OC

>  <composite z-score>
1.14

$$$$

*Q* Data request, read-out composite z-score, for O=C1OCCC/C=C\[C@H]2OC34C=CCN(Cc5ccccc5)C(=O)[C@H]3N(CCCCCO)C(=O)[C@@H]4C12 (stereo not given in full)
*A* -0.862

*Q* Moving on to `COC(=O)[C@H](Cc1ccc(O)cc1)N1CC2=CCCC=C[C@@H]2[C@H]1[C@H](O)Cc1ccccc1`
*A* 0.0409

*Q* Moving on to `CC(=O)NCCCC[C@@H]1NC(=O)[C@H]2C[C@@H](C(=O)NCCCCCC[N+](C)(C)C)[C@@H](c3ccc(O)cc3)N2C1=O`
*A* 1.54

*Q* Moving on to C=CCC(OC(C)=O)[C@@H]1[C@@H](N(Cc2ccc(-c3cccc(C(F)(F)F)c3)o2)C(=O)Cc2ccc(OC)cc2)c2cc(OCCCO)ccc2N1C(=O)c1ccc2ccccc2n1 (stereo not given in full)
*A* 0.292

*Q* Moving on to N#Cc1ccc(C(O)C2C=CC3C(=O)N(c4ccccc4)C(=O)C3N2Nc2ccc([N+](=O)[O-])cc2)cc1 (stereo not given)
*A* 2.33

*Q* Moving on to `COc1ccc(C#Cc2ccc3c(c2)[C@]2(C(=O)N3)[C@H](C(=O)Nc3nc4ccccc4s3)[C@H]3C(=O)O[C@H](c4ccccc4)[C@H](c4ccccc4)N3[C@@H]2c2ccc(OCCO)cc2)cc1`
*A* 1.11

*Q* Moving on to CCCCC(O)C1C=CC2C(=O)NC(=O)C2N1Nc1ccccn1 (stereo not given)
*A* 1.12

*Q* Moving on to `C#CCN=C(N)N`
*A* 0.468

*Q* Moving on to `CCOC(=O)C1=C(C(=O)OCC)N(S(=O)(=O)CC[Si](C)(C)C)[C@H](c2ccccc2)CC1`
*A* 0.171

*Q* Moving on to NC(=O)N1C(=O)C2C(C1=O)C1C=C(CCCO)C2C(c2ccc(CN3CCCC3)cc2)N1Cc1cccc(OC(F)(F)F)c1 (stereo not given)
*A* 0.22

*Q* Moving on to `[N-]=[N+]=NCc1ccccc1C[C@]1(C(=O)N2CCOCC2)N=C(c2ccc(OCCCO)cc2)O[C@H]1c1ccccc1CN=[N+]=[N-]`
*A* 2.97

*Q* Moving on to `COCCOC(=O)N1C(=O)[C@@]2(c3cc(C#CC4(O)CCCCCC4)ccc31)[C@H](c1ccc(OCCO)cc1)N1[C@H](c3ccccc3)[C@H](c3ccccc3)OC(=O)[C@H]1[C@@H]2C(=O)N1CCCCCCC1`
*A* 0.459

*Q* Moving on to `CN(C)C(=O)[C@@]1(CCS(=O)(=O)c2ccccc2)N=C(c2ccc(OCCCO)cc2)O[C@H]1c1ccccc1N=[N+]=[N-]`
*A* 0.838

###

- testSystem: Torsin-1A-interacting protein 2 (Homo sapiens)
- testDetails: LULL1 binders on small-molecule microarray, primary screen, cell lysate, human LULL1 lysate, 635/667 nm fluorescence (AID 1092);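 note: probe is lysate of COS7 cells overexpressing human LULL1; score merges per-feature 667 nm fluorescence with signal-to-noise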
- conditionLabel: hLULL1 lysate binding, 635 nm fluorescence, higher = more signal
parameterMeasured: composite z-score
Please respond with just the number, no unit label.

>  <molecule>
C=C(CC1([C@@H](NP(=O)(c2ccccc2)c2ccccc2)[C@H]2C[C@@H]2CCN(C(=O)OCC)S(=O)(=O)c2ccc(C)cc2)CC1)c1ccccc1

>  <numericReadout>
2.98

$$$$
>  <molecule>
CCCC=C(CCC)[C@@H](NC(=O)c1ccco1)c1ccc(C(=O)OC)cc1

>  <numericReadout>
3.52

$$$$
>  <molecule>
CCCCNC(=O)c1ccc(C#C[Si](C)(C)C)c(OC(C)=O)c1

>  <numericReadout>
-0.092

$$$$
>  <molecule>
CC(C)=CCN(C(=O)C#Cc1ccccc1)[C@H](CO)c1ccccc1

>  <numericReadout>
1.2

$$$$
>  <molecule>
C=CCC(OC(C)=O)[C@@H]1[C@@H](N(Cc2cc3ccccc3o2)C(=O)c2ccc(-c3ccccc3)cc2)c2cc(OCCCO)ccc2N1C(=O)c1ccc2ccccc2n1 (stereo not given in full)

>  <numericReadout>
0.607

$$$$

// next item, composite z-score requested
*Q* Data request, read-out composite z-score, for `CN(C)C(=O)[C@]1(Cc2ccccc2)N=C(c2ccc(OCCCO)cc2)O[C@@H]1c1ccccc1`
*A* 3.52

###

- testDetails: small-molecule microarray binders of probe aEGFR, primary screen, biochemical, biotinylated probe, 635/667 nm fluorescence (AID 1097);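 note: probe is a biotinylated anti-EGFR antibody binding compounds printed on slides; score combines fluorescence near 667 nm and signal to noise of each spot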
- conditionLabel: higher = more signal
Attribute: composite z-score
Please respond with just the number, no unit label.

Below: 7 compounds and their reported composite z-score.
>  <smilesStructure>
[N-]=[N+]=NCc1ccccc1C[C@@]1(C(=O)O)N=C(c2ccc(OCCCO)cc2)O[C@@H]1c1ccccc1CN=[N+]=[N-]

>  <composite z-score>
0.0264

$$$$
>  <smilesStructure>
CC(C)C(=C=CC[C@@H](O)c1ccccc1OCCO)C[C@@H](O)c1cc(Cl)cc(Cl)c1O

>  <composite z-score>
0.0182

$$$$
>  <smilesStructure>
C=C(CCCC)/C(=C/C[C@H](OC(C)=O)c1cccc(OCCO)c1)c1cc(C(=O)OC)ccc1OC

>  <composite z-score>
-0.154

$$$$
>  <smilesStructure>
CN(C)CCCC[C@@H]1NC(=O)[C@@H]2C[C@H](C(=O)NCc3ccc(F)cc3)[C@H](c3ccc(O)cc3)N2C1=O

>  <composite z-score>
0.364

$$$$
>  <smilesStructure>
CC(C)CNC(=O)[C@@H]1c2ccccc2C(=O)N(CC23CC4CC(CC(C4)C2)C3)[C@H]1c1ccc(CO)cc1

>  <composite z-score>
-0.146

$$$$
>  <smilesStructure>
CC#CCO[Si](C#CCCCCCC)(C(C)C)C(C)C

>  <composite z-score>
-0.466

$$$$
>  <smilesStructure>
[N-]=[N+]=NCc1ccccc1C[C@]1(C(=O)N2CCCCC2)N=C(c2ccc(OCCCO)cc2)O[C@H]1c1ccccc1

>  <composite z-score>
-0.125

$$$$

// next item, composite z-score requested
*Q* Data request, read-out composite z-score, for `C=C(C(=O)CC[C@@H](OC(C)=O)c1cccc(OCCO)c1)C(C)C`
*A* -0.207

###

- System: Inhibin beta A chain (activin A)
- testDetails: INHBA (activin A) binders on microarrays, primary screen, biochemical, small-molecule microarray, 635 nm fluorescence scan (AID 1107);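 note: mouse activin A protein probed at 4.33 µg/mL on printed slides; score merges bound-protein fluorescence near 667 nm with spot signal-to-noise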
- conditionLabel: small-molecule microarray binding, higher = more signal
Could you label it rule met if measured composite z-score is 0.9 or higher, and rule not met otherwise?

Solved cases below.
>  <compound>
O=C1C2C=CC(C(O)C(c3ccccc3)c3ccccc3)N(Nc3ccccc3)C2C(=O)N1c1ccccc1 (configuration not stated)

>  <testSystem>
Inhibin beta A chain (activin A)

>  <classification>
rule not met

$$$$
>  <compound>
CN(C)CCCC[C@@H]1NC(=O)[C@H]2C[C@@H](C(=O)O)[C@@H](c3cccc(OCCO)c3)N2C1=O

>  <testSystem>
Inhibin beta A chain (activin A)

>  <classification>
rule not met

$$$$
>  <compound>
C=CCC(OC(C)=O)[C@@H]1[C@@H](N(Cc2ccc(-c3cccc(C(F)(F)F)c3)o2)C(=O)c2cccc3ccccc23)c2cc(OCCCO)ccc2N1C(=O)c1ccc2ccccc2n1 (some centres not stated)

>  <testSystem>
Inhibin beta A chain (activin A)

>  <classification>
rule met

$$$$
>  <compound>
CC(C)C[C@H]1NC(=O)[C@@H](C)NC(=O)[C@@]23C(=O)N[C@@H](Cc4ccccc4)C2[C@H](C)[C@@]2(C)O[C@H]2C3/C=C/C/C=C\CNC1=O (some centres not stated)

>  <testSystem>
Inhibin beta A chain (activin A)

>  <classification>
rule met

$$$$
>  <compound>
C#CCN(C/C=C/c1ccccc1)[C@H](CO[Si](C)(C)C(C)(C)C)c1ccccc1

>  <testSystem>
Inhibin beta A chain (activin A)

>  <classification>
rule not met

$$$$

*Q* Determine whether this compound has composite z-score no lower than 0.9: `C=C(/C(=C/C[C@H](OC(=O)c1ccncc1)c1ccccc1OCCO)c1cc(C(=O)OC)ccc1OC)C(C)C`
*A* rule met

*Q* Moving on to `CC(C)CNC(=O)[C@@]1(C)c2ccccc2C(=O)N(Cc2cc(F)cc(C(F)(F)F)c2)[C@H]1c1ccc(CO)cc1`
*A* rule met
